tested on: male CF1 mice; experiment: Hypolipidemic activity in CF1 mice, intraperitoneal dosing (serum cholesterol and triglyceride); assay type: in vivo; conditions: Mus musculus, ip, 384 h; Table II; 8 mg./kg./day i.p., male CF1 mice, day 16; read-out: Serum Cholesterol Day 16
value_kind: response vs control in vivo at 8 mg/kg (%)
All answers are understood in %, so give the number only.

[BH3-][N+](C)(C)CCCCCCCCCCCCC :: 84
[BH3-][N+](C)(C)CCCCCCCCCCCCCCCC :: 59
[BH3-][N+](C)(C)CCCCCCCCCCCC :: 74

Continue with the molecule presented below.
Prompt line: Observed response vs control in vivo at 8 mg/kg on male CF1 mice for [BH3-][N+](C)(C)CCCCCCCCCCC , please.
Response line: 68

All figures here come from patent US4740504A.
